Source: PubChem BioAssay AID1918936

# System: 349418-098-R-PDC complex spheroid viability
# test: Anticancer human tumor 349418-098-R-PDC patient-derived lung adenocarcinoma cell line growth inhibition; active = viability on the fitted dose curve at most 10% of control; inactive = the rest
# cond: second compound 0.1 µM; first compound 0.1 µM
Response enum: class 1 for active, class 0 for inactive

Check out these entries, answers already filled in.
| compound | assigned-label |
| --- | --- |
| Nc1ncn(C2CC(O)C(CO)O2)c(=O)n1 (configuration not stated) + NC1CC1c1ccc(-c2cccc(O)c2)cc1 | class 0 |
| Cn1ncnc1C1c2n[nH]c(=O)c3cc(F)cc(c23)NC1c1ccc(F)cc1 (configuration not stated) + NC1CC1c1ccc(-c2cccc(O)c2)cc1 | class 0 |
| COc1cc(Nc2ncc3c(n2)-c2ccc(Cl)cc2C(c2c(F)cccc2OC)=NC3)ccc1C(=O)O + NC1CCC(NC2CC2c2ccccc2)CC1 | class 0 |
| CC(C)CC(NC(=O)C(Cc1ccccc1)NC(=O)c1cnccn1)B(O)O (configuration not stated) + NC1CC1c1ccc(-c2cccc(O)c2)cc1 | class 1 |
| O=C(c1cc(Cc2n[nH]c(=O)c3ccccc23)ccc1F)N1CCN(C(=O)C2CC2)CC1 + NC1CC1c1ccc(-c2cccc(O)c2)cc1 | class 0 |

Challenge: // param item: Cn1ncnc1C1c2n[nH]c(=O)c3cc(F)cc(c23)NC1c1ccc(F)cc1 (configuration not stated) + NC1CCC(NC2CC2c2ccccc2)CC1 ; yields the recorded call
Response given: class 0

Challenge: // same read-out, input: COc1cc(Nc2ncc3c(n2)-c2ccc(Cl)cc2C(c2c(F)cccc2OC)=NC3)ccc1C(=O)O + NC1CC1c1ccc(-c2cccc(O)c2)cc1
Response given: class 0

* * *

# Tested on: 349418-098-R-PDC complex spheroid viability
# test: Anticancer human tumor 349418-098-R-PDC cell line growth inhibition;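 also: spheroids exposed to agents for seven days before readout; 100% = DMSO vehicle control wells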
# cond: second compound 0.316 µM; first compound 10 µM; stronger effect = lower value
Please assign class 0 whenever viability, T/C is at or above 40%, and class 1 whenever it is below.

# count of solved cases: 5
| compound | assigned-label |
| --- | --- |
| CC1COCCN1c1cc(C2(S(C)(=N)=O)CC2)nc(-c2ccnc3[nH]ccc23)n1 (stereo not given) + NC1CCC(NC2CC2c2ccccc2)CC1 | class 1 |
| CC1(C)CCC(CN2CCN(c3ccc(C(=O)NS(=O)(=O)c4ccc(NCC5CCOCC5)c([N+](=O)[O-])c4)c(Oc4cnc5[nH]ccc5c4)c3)CC2)=C(c2ccc(Cl)cc2)C1 + NC1CCC(NC2CC2c2ccccc2)CC1 | class 1 |
| CC1(C)CCC(CN2CCN(c3ccc(C(=O)NS(=O)(=O)c4ccc(NCC5CCOCC5)c([N+](=O)[O-])c4)c(Oc4cnc5[nH]ccc5c4)c3)CC2)=C(c2ccc(Cl)cc2)C1 + NC1CC1c1ccc(-c2cccc(O)c2)cc1 | class 1 |
| CC(C)c1c(-c2ccccc2)nc2c(C#N)c[nH]n2c1=O + NC1CCC(NC2CC2c2ccccc2)CC1 | class 0 |
| CC(C)c1c(-c2ccccc2)nc2c(C#N)c[nH]n2c1=O + NC1CC1c1ccc(-c2cccc(O)c2)cc1 | class 0 |

Challenge: Is the reported viability, T/C for COc1ccc([C@@H](O)c2cc(-c3ncnc4cc(N5CCOCC5)ccc34)c(F)cc2Cl)nn1 + NC1CCC(NC2CC2c2ccccc2)CC1 strictly below 40%?
Response given: class 1

Challenge: And CC1COCCN1c1cc(C2(S(C)(=N)=O)CC2)nc(-c2ccnc3[nH]ccc23)n1 (stereo not given) + NC1CC1c1ccc(-c2cccc(O)c2)cc1 ?
Response given: class 1

Challenge: And what about the compound COc1ccc([C@@H](O)c2cc(-c3ncnc4cc(N5CCOCC5)ccc34)c(F)cc2Cl)nn1 + NC1CC1c1ccc(-c2cccc(O)c2)cc1 ?
Response given: class 1

Challenge: How about this compound: O=C(c1cc(Cc2n[nH]c(=O)c3ccccc23)ccc1F)N1CCN(C(=O)C2CC2)CC1 + NC1CC1c1ccc(-c2cccc(O)c2)cc1
Response given: class 0

* * *

# System: 349418-098-R-PDC complex spheroid viability
# test: Anticancer human tumor 349418-098-R-PDC cell line growth inhibition; active = viability on the fitted dose curve at most 10% of control; inactive = the rest;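 also: spheroids exposed to agents for seven days before readout; 100% = DMSO vehicle control wells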
# cond: second compound 10 µM; first compound 0.0316 µM
Hi there, use one of these labels in your reply, thanks! active, inactive

| compound | assigned-label |
| --- | --- |
| CC(C)CC(NC(=O)C(Cc1ccccc1)NC(=O)c1cnccn1)B(O)O (stereo unspecified) + NC1CCC(NC2CC2c2ccccc2)CC1 | active |

Challenge: Called result for COc1cc(Nc2ncc3c(n2)-c2ccc(Cl)cc2C(c2c(F)cccc2OC)=NC3)ccc1C(=O)O + NC1CCC(NC2CC2c2ccccc2)CC1
Response given: inactive

Challenge: Input O=C(c1cc(Cc2n[nH]c(=O)c3ccccc23)ccc1F)N1CCN(C(=O)C2CC2)CC1 + NC1CC1c1ccc(-c2cccc(O)c2)cc1
Response given: inactive

Challenge: And for COc1ccc([C@@H](O)c2cc(-c3ncnc4cc(N5CCOCC5)ccc34)c(F)cc2Cl)nn1 + NC1CC1c1ccc(-c2cccc(O)c2)cc1 ?
Response given: inactive

Challenge: What would you report for O=C(C=Cn1cnc(-c2cc(C(F)(F)F)cc(C(F)(F)F)c2)n1)NNc1cnccn1 + NC1CCC(NC2CC2c2ccccc2)CC1 ?
Response given: active

Challenge: Please give the result for CC1COCCN1c1cc(C2(S(C)(=N)=O)CC2)nc(-c2ccnc3[nH]ccc23)n1 (stereo unspecified) + NC1CC1c1ccc(-c2cccc(O)c2)cc1 too.
Response given: inactive

Challenge: Entry to check: CC[C@@]1(O)C(=O)OCc2c1cc1n(c2=O)Cc2cc3c(CN(C)C)c(O)ccc3nc2-1 + NC1CC1c1ccc(-c2cccc(O)c2)cc1
Response given: active

Challenge: Can you check CC1(C)CCC(CN2CCN(c3ccc(C(=O)NS(=O)(=O)c4ccc(NCC5CCOCC5)c([N+](=O)[O-])c4)c(Oc4cnc5[nH]ccc5c4)c3)CC2)=C(c2ccc(Cl)cc2)C1 + NC1CCC(NC2CC2c2ccccc2)CC1 next?
Response given: inactive

Challenge: Would you mind doing COc1ccc([C@@H](O)c2cc(-c3ncnc4cc(N5CCOCC5)ccc34)c(F)cc2Cl)nn1 + NC1CCC(NC2CC2c2ccccc2)CC1 as well?
Response given: inactive

* * *

# Tested on: 349418-098-R-PDC complex spheroid viability
# test: Anticancer human tumor 349418-098-R-PDC cell line growth inhibition;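 also: spheroids exposed to agents for seven days before readout; 100% = DMSO vehicle control wells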
# cond: second compound 10 µM; first compound 3.16 µM; stronger effect = lower value
readout-kind: viability, T/C (%)
Report the figure in % without appending any unit label.

| molecule | viability, T/C / % |
| --- | --- |
| CC(C)c1c(-c2ccccc2)nc2c(C#N)c[nH]n2c1=O + NC1CC1c1ccc(-c2cccc(O)c2)cc1 | 62.5 |
| O=C(c1cc(Cc2n[nH]c(=O)c3ccccc23)ccc1F)N1CCN(C(=O)C2CC2)CC1 + NC1CC1c1ccc(-c2cccc(O)c2)cc1 | 49.9 |
| CC(C)c1c(-c2ccccc2)nc2c(C#N)c[nH]n2c1=O + NC1CCC(NC2CC2c2ccccc2)CC1 | 86.4 |
| CC1COCCN1c1cc(C2(S(C)(=N)=O)CC2)nc(-c2ccnc3[nH]ccc23)n1 (stereo not given) + NC1CC1c1ccc(-c2cccc(O)c2)cc1 | 11.2 |
| CC1COCCN1c1cc(C2(S(C)(=N)=O)CC2)nc(-c2ccnc3[nH]ccc23)n1 (stereo not given) + NC1CCC(NC2CC2c2ccccc2)CC1 | 9.23 |
| COc1ccc([C@@H](O)c2cc(-c3ncnc4cc(N5CCOCC5)ccc34)c(F)cc2Cl)nn1 + NC1CC1c1ccc(-c2cccc(O)c2)cc1 | 4.81 |

Challenge: What viability, T/C appears in the records for this molecule with 349418-098-R-PDC complex spheroid viability? CC1(C)CCC(CN2CCN(c3ccc(C(=O)NS(=O)(=O)c4ccc(NCC5CCOCC5)c([N+](=O)[O-])c4)c(Oc4cnc5[nH]ccc5c4)c3)CC2)=C(c2ccc(Cl)cc2)C1 + NC1CC1c1ccc(-c2cccc(O)c2)cc1
Response given: 10.5

Challenge: Repeat with COc1ccc([C@@H](O)c2cc(-c3ncnc4cc(N5CCOCC5)ccc34)c(F)cc2Cl)nn1 + NC1CCC(NC2CC2c2ccccc2)CC1
Response given: 9.1

Challenge: Here is the next molecule: O=C(c1cc(Cc2n[nH]c(=O)c3ccccc23)ccc1F)N1CCN(C(=O)C2CC2)CC1 + NC1CCC(NC2CC2c2ccccc2)CC1
Response given: 48.7

Challenge: Also, CC1(C)CCC(CN2CCN(c3ccc(C(=O)NS(=O)(=O)c4ccc(NCC5CCOCC5)c([N+](=O)[O-])c4)c(Oc4cnc5[nH]ccc5c4)c3)CC2)=C(c2ccc(Cl)cc2)C1 + NC1CCC(NC2CC2c2ccccc2)CC1 please.
Response given: 63

* * *

# Tested on: 349418-098-R-PDC complex spheroid viability
# test: Anticancer human tumor 349418-098-R-PDC cell line growth inhibition; active means viability on the fitted dose curve at most 10% of control; inactive means the rest;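 also: spheroids exposed to agents for seven days before readout; 100% = DMSO vehicle control wells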
# cond: second compound 0.316 µM; first compound 0.3 µM
Output constraint: value belongs to active, inactive

Illustrative cases are given below, each with its answer.
| compound | assigned-label |
| --- | --- |
| NS(=O)(=O)OCC1CC(n2ccc3c(NC4CCc5ccccc54)ncnc32)CC1O (centres undefined) + NC1CCC(NC2CC2c2ccccc2)CC1 | inactive |
| Nc1ccn(C2OC(CO)C(O)C2(F)F)c(=O)n1 (centres undefined) + NC1CCC(NC2CC2c2ccccc2)CC1 | active |
| CCN(c1cc(-c2ccc(CN3CCOCC3)cc2)cc(C(=O)NCc2c(C)cc(C)[nH]c2=O)c1C)C1CCOCC1 + NC1CCC(NC2CC2c2ccccc2)CC1 | inactive |

Challenge: # fetch the recorded call for NS(=O)(=O)OCC1CC(n2ccc3c(NC4CCc5ccccc54)ncnc32)CC1O (centres undefined) + NC1CC1c1ccc(-c2cccc(O)c2)cc1 here
Response given: active

Challenge: // query: Nc1ccccc1NC(=O)c1ccc(CNC(=O)OCc2cccnc2)cc1 + NC1CCC(NC2CC2c2ccccc2)CC1
Response given: inactive

Challenge: Now give it for O=C(C=Cc1cccc(S(=O)(=O)Nc2ccccc2)c1)NO + NC1CC1c1ccc(-c2cccc(O)c2)cc1 too.
Response given: inactive

Challenge: And then COc1cc(C2c3cc4c(cc3C(OC3OC5COC(C)OC5C(O)C3O)C3COC(=O)C23)OCO4)cc(OC)c1O (centres undefined) + NC1CCC(NC2CC2c2ccccc2)CC1 , what is it?
Response given: active

Challenge: Entry CCc1c2c(nc3ccc(O)cc13)-c1cc3c(c(=O)n1C2)COC(=O)[C@]3(O)CC + NC1CC1c1ccc(-c2cccc(O)c2)cc1 please
Response given: active

Challenge: Then this compound: Nc1ncn(C2CC(O)C(CO)S2)c(=O)n1 (centres undefined) + NC1CC1c1ccc(-c2cccc(O)c2)cc1
Response given: active
